Provenance of the data: PubChem BioAssay AID192

- Test system: BDF1 mice, B16 melanoma ip, median survival T/C
- assay_summary: NCI In Vivo Anticancer Drug Screen. Data for tumor model B16 Melanoma (intraperitoneal) in B6D2F1 (BDF1) mice
- test_parameters: endpoint: median survival time; dose: 400.0 mg/kg/injection; schedule: Q04DX003 (ip); vehicle: Klucel (hydroxypropylcellulose) (HPC); higher = longer survival
Toxic doses and inconclusive results are not listed.
Please respond with reported T/C for every item in the list.

compound: Cc1ccc(NC(=O)Nc2cccc(Cl)c2)cc1C
measured_target: BDF1 mice, B16 melanoma ip, median survival T/C
T/C: 92 % of control
//
compound: Nc1ccc(-c2ccc(N)c(Cl)c2)cc1Cl
measured_target: BDF1 mice, B16 melanoma ip, median survival T/C
T/C: 100 % of control
//
compound: O=C1Cc2cccc3c2C(C1)CN3C(=O)c1ccccc1 (stereo not drawn)
measured_target: BDF1 mice, B16 melanoma ip, median survival T/C
T/C: 110 % of control
//
compound: Cc1cccc(NC(=O)NC(C)C)c1C
measured_target: BDF1 mice, B16 melanoma ip, median survival T/C
T/C: 100 % of control
//
compound: COc1ccc(C2=CN(S(=O)(=O)c3ccc(C)cc3)CCc3ccccc32)cc1
measured_target: BDF1 mice, B16 melanoma ip, median survival T/C
T/C: 90 % of control
//
compound: CC(C)(CO)C(O)C(=O)NNCc1ccccc1 (stereo not drawn)
measured_target: BDF1 mice, B16 melanoma ip, median survival T/C
T/C: 95 % of control
//
compound: CCC(C)C(C)(COC(N)=O)COC(N)=O (stereo not drawn)
measured_target: BDF1 mice, B16 melanoma ip, median survival T/C
T/C: 105 % of control
//
compound: Cc1ccc(NS(=O)(=O)c2ccc([N+](=O)[O-])cc2)cc1
measured_target: BDF1 mice, B16 melanoma ip, median survival T/C
T/C: 115 % of control
//
compound: O=C(COc1ccc(Cl)cc1)Nc1ccccc1C(F)(F)F
measured_target: BDF1 mice, B16 melanoma ip, median survival T/C
T/C: 90 % of control
//
compound: COc1ccc(C(=O)c2ccc(C)cc2)cc1
measured_target: BDF1 mice, B16 melanoma ip, median survival T/C
T/C: 102 % of control

Report T/C for every entry below.
1. CCOC(=O)C1CN(S(=O)(=O)c2ccc(C)cc2)c2ccccc2C(=O)C1/C(=C/C(=O)OC)C(=O)OC (stereo not drawn)
2. CCOC(=O)Nc1ccc(OC)cc1

[reply]
88 % of control
97 % of control

Report T/C for every entry below.
1. Cc1ccc(S(=O)(=O)N(CCCCN(S(=O)(=O)c2ccc(C)cc2)S(=O)(=O)c2ccc(C)cc2)S(=O)(=O)c2ccc(C)cc2)cc1
2. O=C(/C=C/C(=O)Oc1c(Cl)cc(Cl)cc1Cl)Oc1c(Cl)cc(Cl)cc1Cl
3. Cc1cc(OC(=O)Nc2ccccc2Cl)ccc1[N+](=O)[O-]
4. O=C1NC(=S)S/C1=C\c1ccc(Cl)c(Cl)c1

[reply]
1: 112 % of control; 2: 95 % of control; 3: 93 % of control; 4: 88 % of control

Report T/C for every entry below.
1. Cc1nc(N)[nH]c(=O)c1Br
2. COc1ccc(NC(=O)Oc2c(C(C)C)cccc2C(C)C)cc1

[reply]
89 % of control
103 % of control

* * *

Please respond with reported T/C for every item in the list.
- Test system: BDF1 mice, B16 melanoma ip, median survival T/C
- assay_summary: NCI In Vivo Anticancer Drug Screen. Data for tumor model B16 Melanoma (intraperitoneal) in B6D2F1 (BDF1) mice
- test_parameters: endpoint: median survival time; dose: 12.5 mg/kg/injection; schedule: Q01DX009 (ip); vehicle: saline with Tween-80; higher = longer survival
Inconclusive results and toxic doses are left out.

compound: NC1CC[N-]CC1.NC1CC[N-]CC1.NC1CC[N-]CC1.NC1CC[N-]CC1.[Cl][Rh][Cl]
measured_target: BDF1 mice, B16 melanoma ip, median survival T/C
observable: T/C
data_value: 101 % of control
//
compound: Cc1c2cc(Cl)c3ccccc3c2c[n+]2ccccc12
measured_target: BDF1 mice, B16 melanoma ip, median survival T/C
observable: T/C
data_value: 110 % of control
//
compound: CCC(CC)COC(=O)c1ccccc1C(=O)OCC(CC)CC
measured_target: BDF1 mice, B16 melanoma ip, median survival T/C
observable: T/C
data_value: 87 % of control
//
compound: C1CC[N-]CC1.C1CC[N-]CC1.C1CC[N-]CC1.[Cl][Rh]([Cl])[Cl]
measured_target: BDF1 mice, B16 melanoma ip, median survival T/C
observable: T/C
data_value: 98 % of control
//
compound: ClC(Cl)=C(Cl)Cl
measured_target: BDF1 mice, B16 melanoma ip, median survival T/C
observable: T/C
data_value: 105 % of control

Report T/C for every entry below.
1. C[Si](C)(C)O/C=C1\CCCCC1=O
2. Cc1[nH]c(=O)[nH]c(=O)c1NC(=O)c1ccccc1[N+](=O)[O-]
3. ClC=P(c1ccccc1)(c1ccccc1)c1ccccc1
4. Nc1ncnc2c1cnn2C1OC(CO)C(O)C1O (configuration not stated)
5. N#CSCc1ccccc1Cl
6. CN=S(=O)(OCCCCCOS(=O)(=NC)c1ccc(C)cc1)c1ccc(C)cc1 (configuration not stated)
7. Cc1cc(C)nc(NC(N)=NCCc2ccccc2)n1

[reply]
99 % of control
100 % of control
90 % of control
113 % of control
114 % of control
103 % of control
104 % of control

* * *

- Tested on: BDF1 mice, B16 melanoma ip, median survival T/C
- assay_summary: NCI In Vivo Anticancer Drug Screen. Data for tumor model B16 Melanoma (intraperitoneal) in B6D2F1 (BDF1) mice
- test_parameters: endpoint: median survival time; dose: 2.5 mg/kg/injection; schedule: Q01DX009 (ip); vehicle: saline
Inconclusive results and toxic doses are left out. Rule for the calls: active = survival T/C of 150% or more; inactive = T/C below 125% in these data. Square brackets hold non-standard residues; d marks the D form. Peptide text beside a SMILES is read from it. ξ: configuration not given here. ξLac(3-iPr) = CC(C)CC(O)C(=O)O; NMeV = CN[CH](C(=O)O)C(C)C; NMeA = CN[CH](C)C(=O)O; βAla = NCCC(=O)O
Give one outcome, nothing more. List: T (active), F (inactive)

Solved cases below.
compound: CS(=O)(=O)OCCCNCCCOS(C)(=O)=O
measured_target: BDF1 mice, B16 melanoma ip, median survival T/C
qualitative_label: F
//
compound: CCCCCC(O)C1C(=O)OC(C)C(O)/C=C/C=C/C=C/C=C\C=C(\C)C(O)CC(O)CC(O)CC(O)CC(O)CC(O)CC1O (centres undefined)
measured_target: BDF1 mice, B16 melanoma ip, median survival T/C
qualitative_label: F
//
compound: Cc1c2ccncc2c(C)c2c1[nH]c1ccccc12
measured_target: BDF1 mice, B16 melanoma ip, median survival T/C
qualitative_label: F
//
compound: CC1CN1C(=O)NCCCCCCNC(=O)N1CC1C (centres undefined)
measured_target: BDF1 mice, B16 melanoma ip, median survival T/C
qualitative_label: T
//
compound: CCC(C)C1NC(=O)C2CCCN2C(=O)C(CC(C)C)OC(=O)CCNC(=O)C(C)N(C)C(=O)C(C(C)C)N(C)C1=O (centres undefined) (cyclo([ξLac(3-iPr)]PI[NMeV][NMeA][βAla]); configuration not given here)
measured_target: BDF1 mice, B16 melanoma ip, median survival T/C
qualitative_label: F
//
compound: COc1ccc2c3c1OC1CC(O)C=CC31CCN(C)C2 (centres undefined)
measured_target: BDF1 mice, B16 melanoma ip, median survival T/C
qualitative_label: F

[ask] Query: recorded result category for "c1ccc([C@H]2CN3CCSC3=N2)cc1" in this test
[reply] F

[ask] Query: recorded result category for "c1ccc2c[n+](CCCCCCCCCC[n+]3ccc4ccccc4c3)ccc2c1" in this test
[reply] F

[ask] Query: recorded result category for "CCCCNC1=C(N2CC2)C(=O)C(NCCCC)=C(N2CC2)C1=O" in this test
[reply] F

* * *

Please respond with reported T/C for every item in the list.
- System: BDF1 mice, B16 melanoma ip, median survival T/C
- assay_summary: NCI In Vivo Anticancer Drug Screen. Data for tumor model B16 Melanoma (intraperitoneal) in B6D2F1 (BDF1) mice
- test_parameters: endpoint: median survival time; dose: 25.0 mg/kg/injection; schedule: Q01DX009 (ip); vehicle: water; higher = longer survival
Inconclusive results and toxic doses are left out. Peptide text beside a SMILES is read from it.

Report T/C for every entry below.
1. CC1OC(OCc2ccc(-c3ccccc3)cc2)CC(N)C1O (centres undefined)
2. [Cl][Mn][Cl]
3. COc1cc2ccncc2cc1O
4. CCN(CC)CCCC(C)NS(=O)(=O)c1cccc2c(N(C)C)cccc12 (centres undefined)

[reply]
1: 87 % of control; 2: 109 % of control; 3: 109 % of control; 4: 97 % of control

Report T/C for every entry below.
1. NC(CNC(=O)CBr)C(=O)O (centres undefined)
2. CNNCc1ccc(/C=N/NC(N)=S)cc1
3. CCCCn1ccnc1C
4. CC(C)C(O)(C(=O)OCC1=CC[N+]2(C)CCC(O)C12)C(C)O (centres undefined)
5. CC(C)C(NC(=O)C(NC(=O)C(CCCN=C(N)N)NC(=O)C(N)CCCCN)C(C)C)C(N)=O (centres undefined) (H-KRVV-NH2; configuration not given here)

[reply]
122 % of control
100 % of control
101 % of control
107 % of control
97 % of control
